Consider the following compounds; for each one, report its melting point.

COMPOUND	melting point
COc1ccc(C(=O)Nc2ccccc2)cc1NCc1cccc([N+](=O)[O-])c1	172 to 175 °C
CNC(=O)N(O)Cc1ccc2c(c1)OCc1ccccc1C2=O	155 to 157 °C
COc1ccc(-c2csc3nc(C)c(CCN4CCC(c5noc6cc(F)ccc56)CC4)c(=O)n23)cc1	114 to 119 °C
CC(C)N(CC(O)CC(c1ccccc1)c1ccccc1)C(C)C (stereo not given)	55 to 59 °C
CNC(=O)[C@@H]1CCCN1S(=O)(=O)c1ccc(Cl)c(COc2cccc3c2NC(C)(C)C=C3n2cncn2)c1Cl	131 °C
OCc1ccc(-c2ccc(-c3cn([C@H]4CN5CCC4CC5)nn3)o2)cc1	209 °C
CCCc1nc2c(N)nc3c(c2n1CCCCCC(=O)N1CCOCC1)CCCC3	162 to 163 °C
COc1cnc(CO)cc1OC1CCCC1	93 to 94.5 °C

I'm hoping you can list melting point for every compound here, please.
1. C=CCN(CC=C)C(=O)C1CC(C)(C)NC(C)(C)C1
2. Nc1ncccc1OCc1cccc(Cl)c1F

Output line:
1. 64 to 67 °C
2. 98 to 100 °C

Provide the reported melting point of each entry below, same order.
1. O=c1nc(Nc2ccc(Cl)cc2)sc2ncccc12
2. CC(C)(C)c1cc(C=CC(=O)NN)cc(C(C)(C)C)c1O
3. O=C(O)c1cn(Cc2ccc(OCc3csc(-c4ccccc4)n3)cc2)nc1-c1cccs1

Output line:
278 to 279 °C
166 °C
187 to 188 °C

// each listed compound needs a value for melting point
1. Cc1oc(=O)c(Nc2ccc(I)cc2)nc1Cl
2. Nc1ccc(Cn2ncc3ccccc32)cc1
3. Cc1ccc(C(=O)N(C)C)cc1-c1nc(NCCN(C)C)nc2c1CNC(=O)N2c1c(F)cccc1F

Output line:
1: 203 to 205 °C; 2: 110 to 111 °C; 3: 138 to 142 °C

Give one value of melting point per listed compound.
1. COc1ccc2c(c1)C(C(=O)N(Cc1ccc(N)cc1)c1ccc(C(C)C)cc1)CCC2 (stereo not given)
2. CCCc1nn(C)c2c(OCCOc3ccc(CC(OCC)C(=O)O)cc3)nc(C)nc12 (stereo not given)
3. Cn1cc(CC(=O)O)c(OCc2ccc(OCc3csc(-c4ccccc4)n3)nc2)n1
4. NS(=O)(=O)c1cccc(-c2noc(-c3cnn4ccc(-c5ccc(Cl)cc5)nc34)n2)c1
5. CN1Cc2nc3ccccc3c(=O)n2-c2ccccc2C1=O

Output line:
115 to 117 °C
142 to 144 °C
156 to 157 °C
223 °C
204 to 206 °C

Each of the following entries comes with a recorded value; kindly state melting point for each.
1. Cc1nc(-n2ccc(OCc3ccccc3)cc2=O)[nH]c1C(=O)NCc1ccccc1
2. COC(=O)Cn1c(=O)[nH][nH]c1=O
3. CCOC(=O)C1(C(=O)OCC)OC(=O)c2ccccc2C1(O)c1ccc(F)cc1 (stereo not given)
4. O=C1CC(c2cccc(-n3ccnc3)c2)=Nc2cc(OCCO)c(-c3ccc(F)cc3)cc2N1
5. COC(=O)C[C@@H]1CCC/C1=C\Cc1c(O)c2c(c(C)c1OC)COC2=O
6. CNS(=O)(=O)c1cc(Cl)sc1C(=O)O
7. O=c1ccccn1C1=CC(CF)(CF)Oc2ccc(C(F)(F)F)cc21

Output line:
["183 to 184 °C", "215 to 218 °C", "102 to 104 °C", "225 °C", "72 to 74 °C", "103 to 104 °C", "139 to 140 °C"]

State recorded melting point for all listed compounds.
1. Cc1ccc2nc(S)sc2c1
2. CCCc1sc(N)c(C(=O)c2ccc(Cl)cc2)c1C
3. CN(C)N=C(c1ccccc1)c1cc(C(C)(C)C)c(O)c(C(C)(C)C)c1
4. CC(C)(CCCCCCCCC(C)(C)NC(=O)Cc1cc(C(C)(C)C)c(O)c(C(C)(C)C)c1)NC(=O)Cc1cc(C(C)(C)C)c(O)c(C(C)(C)C)c1
5. COc1cc(Cc2cnc(N)nc2N)cc2c1OC(C)(C)C=C2Br
6. COc1ccc(Nc2c([N+](=O)[O-])cc([N+](=O)[O-])c(Cl)c2C(=O)O)cc1
7. O=C1Nc2ccccc2C12COc1c(Cl)cc3c(c12)OCCO3 (stereo not given)

Output line:
179 to 181 °C
94 to 95 °C
111 to 124 °C
168 °C
238 to 239 °C
241 to 245 °C
255 to 257 °C

I would be grateful if you could provide melting point for each of the following entries.
1. Cc1[nH]c(=O)c(C#N)cc1-c1ccccc1OCC(=O)O
2. COc1ccc(Br)c2cc(C(=O)c3cccc(C(F)(F)F)c3)oc12
3. Cc1ccc(S(=O)(=O)C(C)(C)C(=O)c2ccccc2)cc1
4. CCCCCN1C(=O)C(CCc2nnn[nH]2)(NC(=O)c2ccc(Cl)c(Cl)c2)c2ccccc21 (stereo not given)
5. CCOc1ccc(-c2nc(-c3cc(CNC)c(O)c(C(=O)O)c3)cs2)cc1OCC

Output line:
["297 to 299 °C", "78 to 79 °C", "64 to 64.5 °C", "142 °C", "271 to 273 °C"]

Taken from a melting point compilation (Tetko et al.; mined from patent text by program, amines drawn as free bases though some values may be those of a salt).
